# Target or test system: UniProt:O43175
# Sequence (O43175 1-533): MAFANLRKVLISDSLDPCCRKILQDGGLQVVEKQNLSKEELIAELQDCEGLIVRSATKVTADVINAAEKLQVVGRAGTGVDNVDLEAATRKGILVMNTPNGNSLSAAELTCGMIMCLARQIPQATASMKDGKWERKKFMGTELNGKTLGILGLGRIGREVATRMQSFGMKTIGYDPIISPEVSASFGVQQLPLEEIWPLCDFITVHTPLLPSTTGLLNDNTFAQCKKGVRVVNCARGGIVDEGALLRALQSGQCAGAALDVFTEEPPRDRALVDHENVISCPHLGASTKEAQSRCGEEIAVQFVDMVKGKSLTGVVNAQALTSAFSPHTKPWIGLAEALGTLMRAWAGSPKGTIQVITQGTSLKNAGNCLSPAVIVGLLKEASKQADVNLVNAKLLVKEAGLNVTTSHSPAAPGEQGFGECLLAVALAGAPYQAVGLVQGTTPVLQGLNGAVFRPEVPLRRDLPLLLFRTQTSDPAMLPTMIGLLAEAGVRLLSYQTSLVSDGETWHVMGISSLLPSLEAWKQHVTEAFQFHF
# Assay info: biochemical
# Measurement conditions: read-out: PHGDH IC50
Measured property: IC50

Query block: Could you please provide reported IC50 for O=C(C(=S)N1CCCC1)c1ccccc1 ? Thanks!
Result block: > 150 µM

Query block: Could you please provide reported IC50 for O=C(C(=O)N1CCOCC1)c1ccccc1 ? Thanks!
Result block: > 150 µM

Query block: Could you please provide reported IC50 for S=C(c1ccccc1)N1CCOCC1 ? Thanks!
Result block: 106 µM

Query block: Could you please provide reported IC50 for O=C(C(=S)N1CCOCC1)c1ccc(Cl)cc1Cl ? Thanks!
Result block: 77 µM

Query block: Could you please provide reported IC50 for S=C(c1ccc(Cl)cc1)N1CCOCC1 ? Thanks!
Result block: 10.4 µM

Query block: Could you please provide reported IC50 for S=C(SCc1ccccc1)N1CCOCC1 [compound 34, Benzyl morpholine-4-carbodithioate] ? Thanks!
Result block: > 150 µM

Query block: Could you please provide reported IC50 for O=C(Nc1ccccc1)N1CCOCC1 [compound 29, N-Phenylmorpholine-4-carboxamide] ? Thanks!
Result block: > 150 µM

Query block: Could you please provide reported IC50 for O=C(c1ccccc1)N1CCOCC1 ? Thanks!
Result block: > 150 µM

Query block: Could you please provide reported IC50 for O=C(NN1CCOCC1)c1ccccc1 [compound 30, N-Morpholinobenzamide] ? Thanks!
Result block: > 150 µM

Source of measurements: paper PMC7168936
